Assay target: T1, miR2-FL-WT-T7 (mouse, UniProt Q80WQ6 1-827)
T1 construct: on MEF-DKO cells
T1 sequence: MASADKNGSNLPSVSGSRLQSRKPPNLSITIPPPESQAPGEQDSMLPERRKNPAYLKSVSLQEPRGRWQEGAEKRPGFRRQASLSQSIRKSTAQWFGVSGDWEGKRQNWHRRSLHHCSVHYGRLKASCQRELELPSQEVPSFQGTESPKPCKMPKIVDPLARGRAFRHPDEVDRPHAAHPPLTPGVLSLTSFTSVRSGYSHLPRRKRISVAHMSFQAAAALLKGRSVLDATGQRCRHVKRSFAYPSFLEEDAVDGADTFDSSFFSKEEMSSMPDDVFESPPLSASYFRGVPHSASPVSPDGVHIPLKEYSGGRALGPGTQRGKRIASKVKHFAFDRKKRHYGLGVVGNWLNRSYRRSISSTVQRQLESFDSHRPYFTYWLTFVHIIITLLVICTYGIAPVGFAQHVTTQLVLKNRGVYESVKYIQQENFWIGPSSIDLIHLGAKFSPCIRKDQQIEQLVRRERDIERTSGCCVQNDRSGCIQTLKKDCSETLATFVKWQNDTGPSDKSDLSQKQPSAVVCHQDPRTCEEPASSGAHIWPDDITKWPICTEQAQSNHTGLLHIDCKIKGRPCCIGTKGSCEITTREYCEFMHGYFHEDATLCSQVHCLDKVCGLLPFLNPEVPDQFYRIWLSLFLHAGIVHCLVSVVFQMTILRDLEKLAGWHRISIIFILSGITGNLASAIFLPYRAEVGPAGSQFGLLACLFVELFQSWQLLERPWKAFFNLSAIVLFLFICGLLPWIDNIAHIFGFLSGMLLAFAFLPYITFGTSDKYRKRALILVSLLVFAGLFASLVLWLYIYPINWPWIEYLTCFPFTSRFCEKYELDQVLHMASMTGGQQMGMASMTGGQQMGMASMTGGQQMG
Assay details: FACS, MEF-DKO cells, 3 µg/ml
List of loss of binding vs wild type values.

| Binder | Measurement |
| --- | --- |
| antibody 43 (antibody, V domains shown, mouse IgG, kappa light chain; also called clone #43; purified antibody 43) VH: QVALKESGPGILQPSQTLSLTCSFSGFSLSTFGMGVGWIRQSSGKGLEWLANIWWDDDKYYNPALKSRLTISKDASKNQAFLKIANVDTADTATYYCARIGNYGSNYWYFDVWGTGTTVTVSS VL: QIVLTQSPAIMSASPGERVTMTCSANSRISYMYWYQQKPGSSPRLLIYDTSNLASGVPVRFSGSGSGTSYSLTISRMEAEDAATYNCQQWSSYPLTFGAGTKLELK | ≥ 95% |

Next, consider the following binder.
The binder antibody 42 (antibody, V domains shown, mouse IgG, kappa light chain; also called clone #42; purified antibody 42) VH: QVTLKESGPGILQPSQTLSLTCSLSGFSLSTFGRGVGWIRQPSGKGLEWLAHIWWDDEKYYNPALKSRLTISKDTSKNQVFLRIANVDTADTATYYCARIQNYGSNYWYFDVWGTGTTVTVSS VL: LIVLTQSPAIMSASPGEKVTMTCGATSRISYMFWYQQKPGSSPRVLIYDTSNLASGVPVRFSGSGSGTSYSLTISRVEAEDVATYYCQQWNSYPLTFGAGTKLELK showed loss of binding vs wild type equal to ≥ 95%
